Please find below IC50 measurements for Angiopoietin-1 receptor (Homo sapiens, UniProt Q02763), combined from several publications.

| compound | IC50 |
| --- | --- |
| COc1cc(Nc2ncnc(-n3c(Nc4ccc(C)cc4)nc4ccccc43)n2)cc(OC)c1OC | > 9.31 µM |
| Cc1nc2c(-c3cccc(N4CCN(CCO)CC4)c3)cnn2c(N)c1-c1ccc(F)c(Cl)c1 | > 10 µM |
| COc1cc(Nc2ncnc(-n3c(NCc4ccc([N+](=O)[O-])cc4)nc4ccccc43)n2)cc(OC)c1OC | 4.54 to 6.62 µM |
| COc1cc(Nc2ncnc(Nc3ccc(O)cc3Cl)n2)cc(OC)c1OC | > 11.1 µM |
| COc1cc(Nc2ncnc(Nc3ccc(C)c(NS(C)(=O)=O)c3)n2)cc(OC)c1OC | > 9.77 µM |
| COc1ccc(-c2nc(-c3ccncc3)nn2CC(=O)NC2CCCC2)cc1Cl | ≥ 10 µM |
| COc1ccc(OC)c(NC(=O)N2CCN(c3nsnc3OCc3ccnc(N)n3)CC2)c1 | 1 to 10 µM |
| COc1cc(Nc2ncnc(N(c3ccccc3)c3nc4ccccc4[nH]3)n2)cc(OC)c1OC | > 9.58 µM |
| CC1CN(c2nsnc2OCc2ccncc2)CCN1C(=O)Cc1cc(C(F)(F)F)ccc1C(F)(F)F (centres unmarked) | 0.05 to 1 µM |
| COCCOc1ccc(Nc2ncnc(Nc3ccc(C)c(O)c3)n2)cc1OC | 8.81 to 11.3 µM |
| CCCNC(=O)N(CCn1nc(-c2ccncc2)nc1-c1ccc(OC)c(Cl)c1)C1CCCC1 | ≥ 10 µM |
| COc1ccc(-c2nc(-c3ccncc3)nn2CCN(C(=O)N[C@@H]2C[C@H]2c2ccccc2)C2CCCC2)cc1Cl | 1 to 10 µM |
| Cc1nc(-c2ccncc2)nn1CCN(C(=O)Cc1cccc2ccccc12)C1CCCC1 | < 0.05 µM |
| O=C(Cc1cccc2ccccc12)N(CCn1nc(-c2ccc(O)c(Cl)c2)nc1-c1ccncc1)C1CCCC1 | 0.05 to 1 µM |
| Cc1nc(-c2ccncc2)nn1CCN(C(=O)Cc1cccc2ccccc12)C(C)C | < 0.05 µM |
| Nc1nccc(COc2nsnc2N2CCN(C(=O)Nc3cccc(OC(F)(F)F)c3)CC2)n1 | < 0.05 µM |
| COc1cc(Nc2ncnc(Nc3cccc(Oc4ccccc4)c3)n2)cc(OC)c1OC | > 10.1 µM |
